Kindly state inhibition at 10 µM for each of the entries shown.
- Tested on: human IL-8
- protocol_summary: Inhibition of IL-8 production by stimulated human peripheral blood leukocytes in vitro (ELISA)
- Format: cell-based
- experimental_parameters: Homo sapiens, Leukocyte, PBL, zymosan stimulation, compound 10 μM; read-out: Percentage of inhibition of IL-8 production
Please report the result as a number followed by the unit.

Prompt line: Fill in inhibition at 10 µM for record CC[C@H]1OC(=O)[C@H](C)[C@@H](O[C@H]2C[C@@](C)(OC)[C@@H](O)[C@H](C)O2)[C@H](C)[C@@H](O[C@@H]2O[C@H](C)C[C@H](N(C)C)[C@H]2O)[C@](C)(O)C[C@@H](C)CN(C)[C@H](C)[C@@H](O)[C@]1(C)O [azithromycin, reference compound]
Response line: 0%

Prompt line: Fill in inhibition at 10 µM for record `C=CC(=O)O[C@H]1[C@H](C)[C@@H](O[C@@H]2O[C@H](C)C[C@H](N(C)C)[C@H]2O)[C@](C)(OC)C[C@@H](C)C(=O)[C@H](C)[C@@H](O)[C@](C)(O)[C@@H](CC)OC(=O)[C@@H]1C`
Response line: 10%

Prompt line: Fill in inhibition at 10 µM for record CC[C@H]1OC(=O)[C@H](C)[C@@H](OC(=O)CCN(CC)CC)[C@H](C)[C@@H](O[C@@H]2O[C@H](C)C[C@H](N(C)C)C2O)[C@](C)(O)C[C@@H](C)CN(C)[C@H](C)[C@@H](O)[C@]1(C)O (stereo in doubt)
Response line: 20%

Prompt line: Fill in inhibition at 10 µM for record `CC[C@H]1OC(=O)[C@H](C)[C@@H](OC(=O)CCN(CC)CC)[C@H](C)[C@@H](O[C@@H]2O[C@H](C)C[C@H](N(C)C)[C@H]2O)[C@](C)(OC)C[C@@H](C)C(=O)[C@H](C)[C@@H](O)[C@]1(C)O`
Response line: 48%

Prompt line: Fill in inhibition at 10 µM for record `CC[C@H]1OC(=O)[C@H](C)[C@@H](OC(=O)CCN2CCN(CCN(CC)CC)CC2)[C@H](C)[C@@H](O[C@@H]2O[C@H](C)C[C@H](N(C)C)[C@H]2O)[C@](C)(OC)C[C@@H](C)C(=O)N[C@H](C)[C@@H](O)[C@]1(C)O`
Response line: 3%

Prompt line: Fill in inhibition at 10 µM for record `CC[C@H]1OC(=O)[C@H](C)[C@@H](OC(=O)CCN(C)CCO)[C@H](C)[C@@H](O[C@@H]2O[C@H](C)C[C@H](N(C)C)[C@H]2O)[C@](C)(OC)C[C@@H](C)C(=O)N[C@H](C)[C@@H](O)[C@]1(C)O`
Response line: 0%
